B1: glmS ribozyme (parent)
chain: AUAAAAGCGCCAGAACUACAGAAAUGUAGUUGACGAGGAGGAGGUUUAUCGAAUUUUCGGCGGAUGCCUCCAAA

Variants of: B1
Assay: self-cleavage kobs at 160 uM GlcN6P; higher = faster cleavage; RNA array
Conditions: with glucosamine-6-phosphate
Fewer inactive variants are shown than the library holds.
QUANTITY: self-cleavage kobs at 160 uM GlcN6P (s⁻¹)
Give bare numbers, in s⁻¹.

- CHANGES: "A15C A42G"
  self-cleavage kobs at 160 uM GlcN6P (s⁻¹): 0.000843
- CHANGES: "G13A U56A"
  self-cleavage kobs at 160 uM GlcN6P (s⁻¹): "2.49e-05"
- CHANGES: "A33G C34A U55A C70A"
  self-cleavage kobs at 160 uM GlcN6P (s⁻¹): 0.00034

// for each variant below, give its self-cleavage kobs at 160 uM GlcN6P
1. U56C
2. U56C U57G C58A
3. C67U U69G
4. G32U A53U

Result:
1: 0.000244; 2: 0.00183; 3: 4.85e-05; 4: 1.91e-05
